System: P. falciparum (NF54 or 3D7 strain)
PROTOCOL_DESCRIPTION: Assay for P. falciparum proliferation in infected human blood cells (SYBR Green)
Type: cell-based, Plasmodium falciparum
CONDITION_DESCRIPTION: Plasmodium falciparum, Erythrocyte, 72 h, NF54 or 3D7 infected human erythrocytes, 72 hours; read-out: EC50 (nM), inhibitory efficacy in delaying P. falciparum proliferation in infected human blood cells
We label by threshold. Values of EC50 strictly beneath 1000 nM are condition met. Values of 1000 nM and up are condition not met.

- COMPOUND: "CN(C(=O)c1cn2c(-c3ccc(C(F)(F)F)cc3)cnc2cn1)c1ccc(N2CCOCC2)cn1 [Compound 321]"
  ASSIGNED_CLASS: "condition not met"
- COMPOUND: "CN(C(=O)c1cn2c(-c3ncc(F)cc3F)cnc2cn1)c1ccc(C#N)cc1 [Compound 29]"
  ASSIGNED_CLASS: "condition not met"
- COMPOUND: "CN(C(=O)c1cn2c(-c3ccc(-n4cccn4)cc3)cnc2cn1)c1ccc(C#N)cc1 [Compound 87]"
  ASSIGNED_CLASS: "condition met"
- COMPOUND: "CN(C(=O)c1cn2c(-c3ccc(NS(C)(=O)=O)cc3)cnc2cn1)c1ccc(Cl)nc1 [Compound 419]"
  ASSIGNED_CLASS: "condition not met"
- COMPOUND: "Cc1ncccc1N(C)C(=O)c1cn2c(-c3ccc(C(F)(F)F)cc3)cnc2cn1 [Compound 420]"
  ASSIGNED_CLASS: "condition not met"
- COMPOUND: "CN(C(=O)c1cn2c(-c3ccc(-c4nnc(N)s4)cc3)cnc2cn1)c1ccc(C#N)cc1 [Compound 74]"
  ASSIGNED_CLASS: "condition met"
- COMPOUND: "COc1cc(N(C)C(=O)c2cn3c(-c4ccc(C(F)(F)F)cc4)cnc3cn2)ccn1 [Compound 296]"
  ASSIGNED_CLASS: "condition not met"
- COMPOUND: "Cc1cc(-c2cnc3cnc(C(=O)N(C)c4ccc(C#N)cc4)cn23)ccn1 [Compound 378]"
  ASSIGNED_CLASS: "condition not met"
